target: Potassium voltage-gated channel subfamily KQT member 1 (Homo sapiens); assay: inhibitors of human KCNQ1 channel, primary screen, cell-based, thallium flux, high-throughput (AID 2642); conditions: CHO-K1 KCNQ1, FluxOR thallium flux fluorescence, at 10 µM;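 note: channel opened by potassium depolarization with thallium stimulus after 20 min compound exposure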
Among all 310,000 compounds or so, about 3,900 (1.3%) were called active.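 Rule for the calls: active = compounds whose thallium flux B-score, printed positive for inhibition, exceeds three library SD while starting fluorescence stays within three; inactive = the rest.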 This is one part of a sample in which actives are shown more often than they occur.
Possible outcomes: class 1 for active, class 0 for inactive

>  <MOLECULE>
FC(F)(F)c1cc(-c2ccco2)nc(NCc2ccc(Cl)cc2)n1

>  <ASSIGNED_CLASS>
class 1

$$$$
>  <MOLECULE>
C=CCN1CN(S(=O)(=O)c2ccc(OC)cc2)c2nc3ccccc3nc21

>  <ASSIGNED_CLASS>
class 0

$$$$
>  <MOLECULE>
CCC(C(=O)OCC(=O)Nc1ccc(C(=O)Nc2ccc(OC)cc2)cc1)c1ccccc1 (stereo unspecified)

>  <ASSIGNED_CLASS>
class 0

$$$$
>  <MOLECULE>
O=c1onc(-c2c(F)cccc2F)n1-c1ccccc1Cl

>  <ASSIGNED_CLASS>
class 0

$$$$
>  <MOLECULE>
O=C(Nc1ccccc1N1CCN(C(=O)c2ccccc2)CC1)c1ccco1

>  <ASSIGNED_CLASS>
class 0

$$$$
>  <MOLECULE>
FC(F)(F)c1cc(-c2cccs2)nc(NCc2ccco2)n1

>  <ASSIGNED_CLASS>
class 0

$$$$
>  <MOLECULE>
Cc1cccc(C(=O)NNC(=O)CSc2nnc(C(C)C)n2C)c1

>  <ASSIGNED_CLASS>
class 0

$$$$
>  <MOLECULE>
COc1cccc(COC(=O)C2CCN(S(=O)(=O)c3cccs3)CC2)c1OC

>  <ASSIGNED_CLASS>
class 0

$$$$
>  <MOLECULE>
c1ccc2c(C[n+]3csc4ccccc43)cccc2c1

>  <ASSIGNED_CLASS>
class 0

$$$$
>  <MOLECULE>
COC(=O)[C@H](Cc1ccccc1)NC(=O)Nc1ccc(OC)cc1

>  <ASSIGNED_CLASS>
class 0

$$$$
>  <MOLECULE>
CCCNC(=O)c1ccc(N2CCC3(CC2)CC(c2ccc(Cl)cc2)=NO3)c([N+](=O)[O-])c1

>  <ASSIGNED_CLASS>
class 0

$$$$

###

target: Potassium voltage-gated channel subfamily KQT member 1 (Homo sapiens) (UniProt P51787); test: inhibitors of human KCNQ1 channel, primary screen, cell-based, thallium flux, high-throughput (AID 2642); conditions: CHO-K1 KCNQ1, FluxOR thallium flux fluorescence, at 10 µM;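 note: channel opened by potassium depolarization with thallium stimulus after 20 min compound exposure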
Sequence (P51787 whole entry, looked up): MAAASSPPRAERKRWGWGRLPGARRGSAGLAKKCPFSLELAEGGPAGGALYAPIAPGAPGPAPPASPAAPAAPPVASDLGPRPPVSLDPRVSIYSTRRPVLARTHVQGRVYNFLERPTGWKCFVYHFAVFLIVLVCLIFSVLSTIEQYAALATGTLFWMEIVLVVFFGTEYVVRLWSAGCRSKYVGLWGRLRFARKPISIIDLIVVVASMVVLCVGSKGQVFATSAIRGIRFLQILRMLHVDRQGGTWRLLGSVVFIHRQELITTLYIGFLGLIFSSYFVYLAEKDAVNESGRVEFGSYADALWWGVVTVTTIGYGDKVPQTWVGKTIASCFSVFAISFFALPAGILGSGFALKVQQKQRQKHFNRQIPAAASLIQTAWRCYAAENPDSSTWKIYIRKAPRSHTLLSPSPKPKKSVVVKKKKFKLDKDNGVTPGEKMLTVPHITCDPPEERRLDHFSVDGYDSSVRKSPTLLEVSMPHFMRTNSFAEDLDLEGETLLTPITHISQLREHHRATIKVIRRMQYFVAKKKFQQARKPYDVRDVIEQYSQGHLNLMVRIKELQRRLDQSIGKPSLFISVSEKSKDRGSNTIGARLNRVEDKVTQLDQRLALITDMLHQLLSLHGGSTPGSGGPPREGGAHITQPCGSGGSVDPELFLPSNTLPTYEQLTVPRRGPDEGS
The whole screen tested about 310,000 compounds, of which about 3,900 (1.3%) were called active.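 The calls were made as follows: active = compounds whose thallium flux B-score, printed positive for inhibition, exceeds three library SD while starting fluorescence stays within three; inactive = the rest.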 Many of the other results were omitted from the sample, so actives are more common in it than they were.
Possible outcomes: active, inactive

>  <COMPOUND>
Cc1cc(-c2csc(N)n2)c(C)n1Cc1ccccc1

>  <ASSIGNED_CLASS>
inactive

$$$$
>  <COMPOUND>
Cc1cc(OCc2cc(C(=O)NCc3cc(C(C)C)no3)no2)cc(C)c1Cl

>  <ASSIGNED_CLASS>
inactive

$$$$
>  <COMPOUND>
COc1ccc(C2CC(c3cccs3)=NN2c2ccc(F)cc2)cc1OC (stereo not drawn)

>  <ASSIGNED_CLASS>
inactive

$$$$
>  <COMPOUND>
COc1cc(C(=O)N/C(=C\c2cn(C)c3ccccc23)C(=O)N2CCOCC2)cc(OC)c1OC

>  <ASSIGNED_CLASS>
inactive

$$$$
>  <COMPOUND>
O=C(CCc1ccccc1)Nc1ncc([N+](=O)[O-])s1

>  <ASSIGNED_CLASS>
inactive

$$$$
>  <COMPOUND>
CCOC(=O)c1ccc(NC(=O)c2cccnc2)cc1

>  <ASSIGNED_CLASS>
inactive

$$$$
>  <COMPOUND>
Cc1ccc(-c2nc(-c3cccnc3)sc2CC(=O)Nc2ccc(C)c(Cl)c2)cc1

>  <ASSIGNED_CLASS>
active

$$$$
>  <COMPOUND>
Cc1ccc(N2CCN(S(=O)(=O)c3ccc(F)cc3)CC2)c(C)c1

>  <ASSIGNED_CLASS>
active

$$$$
>  <COMPOUND>
O=S(=O)(NCc1ccc(Cl)cc1Cl)c1cccs1

>  <ASSIGNED_CLASS>
inactive

$$$$
>  <COMPOUND>
Cc1c(C(=O)OC(C)C)sc(NC(=O)c2cccnc2)c1C#N

>  <ASSIGNED_CLASS>
active

$$$$
>  <COMPOUND>
Cc1ccc(S(=O)(=O)Nc2ccc3ncccc3c2)cc1

>  <ASSIGNED_CLASS>
active

$$$$
>  <COMPOUND>
Cc1ccccc1NC(=O)c1cc(S(=O)(=O)Nc2cccc(C(=O)O)c2)ccc1Cl

>  <ASSIGNED_CLASS>
inactive

$$$$
>  <COMPOUND>
O=[N+]([O-])c1cccc(Nc2c3ccccc3nc3ccccc23)c1

>  <ASSIGNED_CLASS>
active

$$$$
>  <COMPOUND>
COc1ccc(C)cc1NC(=O)CCC(=O)Nc1nnc(C(F)(F)F)s1

>  <ASSIGNED_CLASS>
inactive

$$$$
>  <COMPOUND>
CN(C)c1ccc(/C=N\S(=O)(=O)c2ccccc2)cc1

>  <ASSIGNED_CLASS>
inactive

$$$$
>  <COMPOUND>
CCC/C=C(\CCC)C(NC(=O)Cc1ccccc1)c1ccc(C(=O)OC)cc1 (stereo not drawn)

>  <ASSIGNED_CLASS>
inactive

$$$$
>  <COMPOUND>
COc1c(C)cc(C(=O)C2CCCN(S(=O)(=O)c3c(C)noc3C)C2)cc1C (stereo not drawn)

>  <ASSIGNED_CLASS>
inactive

$$$$
>  <COMPOUND>
O=C(c1cc2sccc2n1Cc1ccc(F)cc1)N1CCc2ccccc21

>  <ASSIGNED_CLASS>
inactive

$$$$
>  <COMPOUND>
Cc1ccc(C)c(-n2cc(CN3CCN(C(=O)c4ncn[nH]4)CC3)c(-c3ccccc3)n2)c1

>  <ASSIGNED_CLASS>
inactive

$$$$
>  <COMPOUND>
CCc1cc(C(=O)OC)c(NC(=O)CC2Sc3ccc(C(F)(F)F)cc3NC2=O)s1 (stereo not drawn)

>  <ASSIGNED_CLASS>
inactive

$$$$
>  <COMPOUND>
Cc1cc(C)cc(OCC(=O)Nc2ccc(S(=O)(=O)Nc3ccccn3)cc2)c1

>  <ASSIGNED_CLASS>
inactive

$$$$
>  <COMPOUND>
CCOc1ccc(CCNC(=O)COC(=O)CCS(=O)(=O)c2ccc(C)cc2)cc1OCC

>  <ASSIGNED_CLASS>
inactive

$$$$
>  <COMPOUND>
Cc1nc(-c2ccc(F)cc2)c(CC(=O)Nc2cccc(S(=O)(=O)N3CCOCC3)c2)s1

>  <ASSIGNED_CLASS>
inactive

$$$$
>  <COMPOUND>
CCOC(=O)c1cc2sccc2n1Cc1ccc(C#N)cc1

>  <ASSIGNED_CLASS>
inactive

$$$$
>  <COMPOUND>
CC(C(=O)Nc1ccc(O)c(C(=O)O)c1)N1C(=O)/C(=C/c2cccs2)SC1=S (stereo not drawn)

>  <ASSIGNED_CLASS>
inactive

$$$$
>  <COMPOUND>
COc1ccc(Cc2nnc(SCC(=O)Nc3ccc(C)c(C)c3)o2)cc1OC

>  <ASSIGNED_CLASS>
inactive

$$$$
>  <COMPOUND>
CCC[C@@H]1C[C@@]1(CCC)[C@@H](NC(=O)c1ccccc1)c1ccc(C(=O)OC)cc1

>  <ASSIGNED_CLASS>
active

$$$$
>  <COMPOUND>
Nc1cc(OC(=O)c2ccccc2Br)nn1S(=O)(=O)c1ccccc1

>  <ASSIGNED_CLASS>
inactive

$$$$
>  <COMPOUND>
Cc1cc2nc3c(=O)n(Cc4ccccc4)c(=O)[nH]c3nc2cc1N

>  <ASSIGNED_CLASS>
active

$$$$
>  <COMPOUND>
CCOC(=O)c1c(NC(=O)CCCN2CCOCC2)sc2c1CC(C)(C)OC2

>  <ASSIGNED_CLASS>
inactive

$$$$
>  <COMPOUND>
CCN(CC(=O)Nc1c(F)cccc1F)C(=O)c1ccc(Sc2nncn2C)c([N+](=O)[O-])c1

>  <ASSIGNED_CLASS>
inactive

$$$$
>  <COMPOUND>
CC1Cc2ccccc2N1C(=O)c1cc2sccc2n1Cc1ccccc1 (stereo not drawn)

>  <ASSIGNED_CLASS>
active

$$$$
>  <COMPOUND>
CC[n+]1cc(C)ccc1/C=C/c1ccc(N(C)C)cc1

>  <ASSIGNED_CLASS>
active

$$$$
>  <COMPOUND>
COc1cnn(-c2ccc([N+](=O)[O-])cc2)c(=O)c1Cl

>  <ASSIGNED_CLASS>
inactive

$$$$
>  <COMPOUND>
Cc1ccc(CS(=O)Cc2ccc(C(=O)N3CCOCC3)o2)cc1 (stereo not drawn)

>  <ASSIGNED_CLASS>
inactive

$$$$
>  <COMPOUND>
Cc1ccc(S(=O)(=O)N2CCN(C)CC2)cc1

>  <ASSIGNED_CLASS>
inactive

$$$$
>  <COMPOUND>
CCOC(=O)c1sc(NC(=O)CSc2ncccn2)c(C#N)c1C

>  <ASSIGNED_CLASS>
inactive

$$$$
>  <COMPOUND>
Cc1ccc(NS(=O)(=O)c2ccc(C(C)(C)C)cc2)cn1

>  <ASSIGNED_CLASS>
inactive

$$$$
>  <COMPOUND>
COc1ccccc1Cn1c(C)nnc1-c1cnn(C)c1N

>  <ASSIGNED_CLASS>
inactive

$$$$
>  <COMPOUND>
CC[C@@]12C(=O)N(c3ccccc3)C(=O)N1[C@H](c1ccc(Br)cc1)[C@@H]1C(=O)N(C(C)(C)C)C(=O)[C@@H]12

>  <ASSIGNED_CLASS>
inactive

$$$$
>  <COMPOUND>
CCC1Sc2ccc(S(=O)(=O)CCC(=O)NCc3cccs3)cc2NC1=O (stereo not drawn)

>  <ASSIGNED_CLASS>
inactive

$$$$
>  <COMPOUND>
O=C(Nc1ncc([N+](=O)[O-])s1)C1COc2ccccc2O1 (stereo not drawn)

>  <ASSIGNED_CLASS>
inactive

$$$$
>  <COMPOUND>
O=C(Nc1cccc(Cl)c1)Nc1ccccc1NS(=O)(=O)c1cccs1

>  <ASSIGNED_CLASS>
active

$$$$
